Data origin, for the record: patent US11945794B2

# tgt: CRM1 (Homo sapiens)
# Construct: endogenous in cells
# Sequence (O14980 whole entry): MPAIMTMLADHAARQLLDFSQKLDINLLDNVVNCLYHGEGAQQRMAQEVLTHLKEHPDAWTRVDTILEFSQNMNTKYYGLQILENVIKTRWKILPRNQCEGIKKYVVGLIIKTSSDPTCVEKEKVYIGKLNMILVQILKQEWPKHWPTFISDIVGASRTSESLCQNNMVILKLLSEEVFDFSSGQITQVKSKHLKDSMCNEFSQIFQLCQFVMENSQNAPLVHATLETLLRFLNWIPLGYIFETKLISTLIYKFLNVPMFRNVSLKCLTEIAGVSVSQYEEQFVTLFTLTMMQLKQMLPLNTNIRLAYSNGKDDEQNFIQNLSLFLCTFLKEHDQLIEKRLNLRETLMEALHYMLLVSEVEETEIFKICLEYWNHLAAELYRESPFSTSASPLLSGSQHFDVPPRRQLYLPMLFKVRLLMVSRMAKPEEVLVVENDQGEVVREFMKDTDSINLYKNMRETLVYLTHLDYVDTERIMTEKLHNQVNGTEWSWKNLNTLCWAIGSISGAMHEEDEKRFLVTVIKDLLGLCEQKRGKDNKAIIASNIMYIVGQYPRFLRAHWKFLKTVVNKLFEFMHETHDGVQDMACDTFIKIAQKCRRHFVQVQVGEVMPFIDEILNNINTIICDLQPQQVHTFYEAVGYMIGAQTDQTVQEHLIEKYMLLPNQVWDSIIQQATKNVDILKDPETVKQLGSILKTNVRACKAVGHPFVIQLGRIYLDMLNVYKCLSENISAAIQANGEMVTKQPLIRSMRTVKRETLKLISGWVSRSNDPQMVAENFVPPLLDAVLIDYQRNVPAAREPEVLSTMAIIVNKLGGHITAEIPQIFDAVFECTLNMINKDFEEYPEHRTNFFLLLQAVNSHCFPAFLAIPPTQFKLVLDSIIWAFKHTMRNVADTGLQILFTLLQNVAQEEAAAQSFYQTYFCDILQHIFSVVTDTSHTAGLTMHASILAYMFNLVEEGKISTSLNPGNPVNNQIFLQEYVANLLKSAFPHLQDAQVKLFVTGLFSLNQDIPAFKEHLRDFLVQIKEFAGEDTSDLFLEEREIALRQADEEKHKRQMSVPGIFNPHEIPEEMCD
# assay-explanation: Inhibition of nuclear export, RevGFP assay in U2OS-RevGFP cells
# condition-context: approximately 1 hour incubation
pIC50: −log10 of the molar value.
experimental-readout: pIC50

Worked cases, pIC50 given:
Req: Looking for the measured pIC50 of NC(=O)/C(=C/n1cnc(-c2cc(C(F)(F)F)cc(C(F)(F)F)c2)n1)c1ccnc(C(F)(F)F)c1 [Compound 147] , can you help?
Resp: > 7.00

Req: Looking for the measured pIC50 of N#CC(=Cn1cnc(-c2cc(C(F)(F)F)cc(C(F)(F)F)c2)n1)c1ccccn1 [Compound 100] , can you help?
Resp: < 4.52

Req: Looking for the measured pIC50 of NC(=O)/C(=C/n1cnc(-c2cc(C(F)(F)F)cc(C(F)(F)F)c2)n1)c1cnc(N)nc1 [Compound 136] , can you help?
Resp: 5.30 to 7.00

Req: Looking for the measured pIC50 of CC(C)OC(=O)/C(=C/n1cnc(-c2cc(C(F)(F)F)cc(C(F)(F)F)c2)n1)c1cnn(C)c1 [Compound 130] , can you help?
Resp: 5.30 to 7.00

Let us move to another entry and its pIC50.
Req: Looking for the measured pIC50 of N#C/C(=C/n1cnc(-c2cc(C(F)(F)F)cc(C(F)(F)F)c2)n1)c1cccnc1 [Compound 102] , can you help?
Resp: 5.30 to 7.00

---

# tgt: CRM1 (Homo sapiens)
# Construct: endogenous in cells
# assay-explanation: Inhibition of nuclear export, RevGFP assay in U2OS-RevGFP cells
# condition-context: approximately 1 hour incubation
experimental-readout: IC50

Worked cases, IC50 given:
Req: Looking for the measured IC50 of N#C/C(=C/n1cnc(-c2cc(C(F)(F)F)cc(C(F)(F)F)c2)n1)c1ccncc1 [Compound 105] , can you help?
Resp: 100 to 5000 nM

Req: Looking for the measured IC50 of NC(=O)/C(=C/n1cnc(-c2cc(C(F)(F)F)cc(C(F)(F)F)c2)n1)c1cnc2ccccc2c1 [Compound 149] , can you help?
Resp: < 100 nM

Req: Looking for the measured IC50 of N#Cc1cncc(/C(=C\n2cnc(-c3cc(C(F)(F)F)cc(C(F)(F)F)c3)n2)C(N)=O)c1 [Compound 148] , can you help?
Resp: < 100 nM

Req: Looking for the measured IC50 of NC(=O)/C(=C/n1cnc(-c2cc(C(F)(F)F)cc(C(F)(F)F)c2)n1)c1ccc(Cl)nc1 [Compound 143] , can you help?
Resp: 100 to 5000 nM

Req: Looking for the measured IC50 of Cc1noc(C)c1/C(=C\n1cnc(-c2cc(C(F)(F)F)cc(C(F)(F)F)c2)n1)C(=O)OC(C)C [Compound 116] , can you help?
Resp: 100 to 5000 nM

Req: Looking for the measured IC50 of NC(=O)/C(=C/n1cnc(-c2cc(C(F)(F)F)cc(C(F)(F)F)c2)n1)c1ccncc1 [Compound 108] , can you help?
Resp: < 100 nM

Req: Looking for the measured IC50 of NC(=O)/C(=C\n1cnc(-c2cc(C(F)(F)F)cc(C(F)(F)F)c2)n1)c1ccc(Cl)nc1 [Compound 156] , can you help?
Resp: 100 to 5000 nM

Req: Looking for the measured IC50 of NC(=O)/C(=C/n1cnc(-c2cc(C(F)(F)F)cc(C(F)(F)F)c2)n1)c1cncc(F)c1 [Compound 132] , can you help?
Resp: < 100 nM

Req: Looking for the measured IC50 of NC(=O)/C(=C\n1cnc(-c2cc(C(F)(F)F)cc(C(F)(F)F)c2)n1)c1ccnc(F)c1 [Compound 155] , can you help?
Resp: < 100 nM

Req: Looking for the measured IC50 of NC(=O)/C(=C/n1cnc(-c2cc(C(F)(F)F)cc(C(F)(F)F)c2)n1)c1cncc(Cl)c1 [Compound 141] , can you help?
Resp: 100 to 5000 nM

More entries:
Req: Looking for the measured IC50 of NC(=O)/C(=C/n1cnc(-c2cc(C(F)(F)F)cc(C(F)(F)F)c2)n1)c1cnc(F)nc1 [Compound 137] , can you help?
Resp: < 100 nM

Req: Looking for the measured IC50 of NC(=O)/C(=C/n1cnc(-c2cc(C(F)(F)F)cc(C(F)(F)F)c2)n1)c1ccncc1F [Compound 138] , can you help?
Resp: < 100 nM
